Target of assay: T1, human EphA4 (Homo sapiens, UniProt P54764)
T1 construct: made in house; not restated for the human SEAP-His protein
T1 sequence (P54764 20-547): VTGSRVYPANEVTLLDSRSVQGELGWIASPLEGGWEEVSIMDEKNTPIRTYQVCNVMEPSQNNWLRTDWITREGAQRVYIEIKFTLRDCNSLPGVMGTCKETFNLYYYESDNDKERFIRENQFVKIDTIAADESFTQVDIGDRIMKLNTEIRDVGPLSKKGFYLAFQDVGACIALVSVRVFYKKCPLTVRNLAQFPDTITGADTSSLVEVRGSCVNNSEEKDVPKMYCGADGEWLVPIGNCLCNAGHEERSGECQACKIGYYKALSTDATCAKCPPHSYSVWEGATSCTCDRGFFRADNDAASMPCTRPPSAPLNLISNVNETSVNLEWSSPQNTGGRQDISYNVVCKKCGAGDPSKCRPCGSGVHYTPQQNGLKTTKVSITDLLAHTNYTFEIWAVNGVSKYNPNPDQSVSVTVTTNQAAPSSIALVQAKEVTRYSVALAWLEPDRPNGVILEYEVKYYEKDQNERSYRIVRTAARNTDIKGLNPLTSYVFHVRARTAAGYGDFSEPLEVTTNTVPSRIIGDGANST
Assay method text: Affinity of humanized antibodies by SPR (Biacore T200)
Type: binding
Study conditions: human EphA4 extracellular region-SEAP-His; 1:1 binding model
Measurement type: kd (s⁻¹)
The response must be a number in s⁻¹ with no trailing unit.

kd reading for 81 (antibody, V domains shown, constant regions without entry; synthetic humanized antibody light chain variable region sequence; synthetic humanized antibody heavy chain variable region sequence) VL: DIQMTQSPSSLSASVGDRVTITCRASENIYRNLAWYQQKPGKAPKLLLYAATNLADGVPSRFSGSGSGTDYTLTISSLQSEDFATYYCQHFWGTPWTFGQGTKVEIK VH: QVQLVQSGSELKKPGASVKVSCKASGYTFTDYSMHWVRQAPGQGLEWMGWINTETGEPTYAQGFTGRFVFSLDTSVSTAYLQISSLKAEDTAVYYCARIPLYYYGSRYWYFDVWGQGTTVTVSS : 0.00054

kd reading for 134 (antibody, V domains shown, synthetic humanized antibody heavy chain variable region sequence; synthetic humanized antibody light chain variable region sequence) VH: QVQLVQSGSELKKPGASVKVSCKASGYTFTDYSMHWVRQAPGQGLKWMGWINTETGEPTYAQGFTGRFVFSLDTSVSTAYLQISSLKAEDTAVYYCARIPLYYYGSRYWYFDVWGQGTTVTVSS VL: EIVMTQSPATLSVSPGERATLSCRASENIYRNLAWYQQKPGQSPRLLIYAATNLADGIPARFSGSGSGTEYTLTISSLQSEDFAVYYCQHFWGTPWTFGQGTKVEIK : 0.00032

kd reading for 95 (antibody, V domains shown, constant regions without entry; synthetic humanized antibody light chain variable region sequence; synthetic humanized antibody heavy chain variable region sequence) VL: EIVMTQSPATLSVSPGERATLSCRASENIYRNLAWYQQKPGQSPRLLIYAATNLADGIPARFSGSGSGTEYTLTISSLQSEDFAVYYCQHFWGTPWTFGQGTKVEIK VH: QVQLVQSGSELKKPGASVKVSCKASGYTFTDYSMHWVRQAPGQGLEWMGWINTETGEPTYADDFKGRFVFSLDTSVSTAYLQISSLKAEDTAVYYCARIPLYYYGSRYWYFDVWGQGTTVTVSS : 0.00031

kd reading for 133 (antibody, V domains shown, synthetic humanized antibody heavy chain variable region sequence; synthetic humanized antibody light chain variable region sequence) VH: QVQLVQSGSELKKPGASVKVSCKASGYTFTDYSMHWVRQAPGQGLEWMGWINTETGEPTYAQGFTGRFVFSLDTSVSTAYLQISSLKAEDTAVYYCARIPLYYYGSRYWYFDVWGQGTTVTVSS VL: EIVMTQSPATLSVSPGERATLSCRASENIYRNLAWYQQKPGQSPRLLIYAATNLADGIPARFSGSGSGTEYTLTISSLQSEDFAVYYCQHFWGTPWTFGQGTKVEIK : 0.00032
